The measured values listed here are drawn from the supplement of paper PMC10127200.

Test system: 786-O
Assay: Euclidean distance of Cell Painting phenotypic profile (signed KS, 77 features) to DMSO centroid (dimensionless distance); 5 or 10 uM (library dependent); higher = stronger phenotypic change vs DMSO (phenoactivity)
Conditions: 48 h
Counter-ions that a name gives are not always drawn.
measure.name: Euclidean distance
Answers are plain numbers.

Examples with answers:
molecule: COC[C@H](NC(=O)c1cnc(C)s1)C(=O)N[C@@H](COC)C(=O)N[C@@H](Cc1ccccc1)C(=O)[C@@]1(C)CO1
target.or.test.system: 786-O
measure.name: Euclidean distance
value.reported: 5.53

molecule: COc1c(C)c2c(c(O)c1C/C=C(\C)CCC(=O)O)C(=O)OC2
target.or.test.system: 786-O
measure.name: Euclidean distance
value.reported: 2.65

molecule: CCCCOc1ccc(C(=O)Nc2ccc(F)cc2F)cc1
target.or.test.system: 786-O
measure.name: Euclidean distance
value.reported: 1.45

Need Euclidean distance for each of these molecules.
1. CCC[C@H](NC(=O)[C@@H]1[C@H]2CCC[C@H]2CN1C(=O)[C@@H](NC(=O)[C@@H](NC(=O)c1cnccn1)C1CCCCC1)C(C)(C)C)C(=O)C(=O)NC1CC1
2. CCN(CC)CCCC(C)Nc1c2ccc(Cl)cc2nc2ccc(OC)cc12 (stereo not drawn) [Quinacrine Dihydrochloride Dihydrate]

Output:
1. 1.35
2. 4.25

###

Tested on: OVCAR4
Experiment: Euclidean distance of Cell Painting phenotypic profile (signed KS, 77 features) to DMSO centroid (dimensionless distance); 5 or 10 uM (library dependent); higher = stronger phenotypic change vs DMSO (phenoactivity)
Settings: 48 h
Counter-ions that a name gives are not always drawn.
Provide the recorded Euclidean distance for the entries that follow.
Answers are plain numbers.

Examples with answers:
compound: CC(=O)OCC(=O)[C@@]1(O)[C@H](C)C[C@H]2[C@@H]3CCC4=CC(=O)C=C[C@]4(C)[C@@]3(F)[C@@H](O)C[C@@]21C [Dexamethasone Acetate]
value.reported: 1.67

compound: Nc1ncccc1-c1nc2ccc(-c3ccccc3)nc2n1-c1ccc(C2(N)CCC2)cc1 [Miransertib (ARQ 092) HCl]
value.reported: 3.46

compound: CN1[C@@H](CC(=O)c2ccccc2)CCC[C@H]1C[C@H](O)c1ccccc1 [Lobeline hydrochloride]
value.reported: 1.16

Need Euclidean distance for each of these compounds.
1. CN(N=O)C(=O)NC1C(O)OC(CO)C(O)C1O (stereo not given) [Streptozotocin (STZ)]
2. CCN(CC)CCOC(=O)c1ccc(N)cc1 [Procaine HCl]
3. COC(=O)N[C@H](C(=O)N1CCC[C@H]1C(=O)Nc1ccc([C@@H]2CC[C@@H](c3ccc(NC(=O)[C@@H]4CCCN4C(=O)[C@@H](NC(=O)OC)C(C)C)cc3)N2c2ccc(C(C)(C)C)cc2)cc1)C(C)C
4. O=C(O)c1ccc(-n2nc(-c3ccccc3O)nc2-c2ccccc2O)cc1
5. C=C(C)[C@@H]1CC[C@]2(CO)CC[C@]3(C)[C@H](CC[C@@H]4[C@@]5(C)CC[C@H](O)C(C)(C)[C@@H]5CC[C@]43C)[C@@H]12
6. C[N+]1(C)CCC(OC(=O)C(O)(c2ccccc2)C2CCCC2)C1 (stereo not given) [Glycopyrrolate]
7. COc1cc(N)cn[n+]1-c1ccccc1 [Amezinium (methylsulfate)]

Output:
1: 1.16; 2: 0.916; 3: 1.26; 4: 1.99; 5: 1.1; 6: 1.74; 7: 1.16
